The measurements presented in this section are drawn from patent US8722616B2.

tested on: HIV-1IIIB; experiment: microbe, parasite or virus in culture; details: Table 3; CEM-SS cells
pEC50: −log10 of the molar value. No end group written: not given here.

>  <sequence input>
ILGPVLGLVSDTLDDVLGIL [Maximin H5, reference compound]

>  <inequality sign>
<

>  <pEC50>
4.31

$$$$
>  <sequence input>
ILGPVLGLVSRTLRRVLGIL [Maximin H5r3]

>  <inequality sign>
=

>  <pEC50>
5.66

$$$$
>  <sequence input>
GLRSRIWLWVLLMIWQESNRFKRM [DRS S9r3]

>  <inequality sign>
=

>  <pEC50>
5.90

$$$$
>  <sequence input>
GLRSKIWLWVLLMIWQESNKFKKM [DRS S9, reference compound]

>  <inequality sign>
=

>  <pEC50>
4.50

$$$$
>  <sequence input>
GLRRLLGRLLRRLGRLLLR [GLR-19]

>  <inequality sign>
=

>  <pEC50>
5.36

$$$$

###

system: CEM-SS cells; test: Cytotoxicity in the CPE assay (XTT, 50% reduction in cell viability); settings: read-out: TC50; Table 1; CEM-SS cells, six days; 50% reduction in cell viability
No end group written: not given here.

>  <substance>
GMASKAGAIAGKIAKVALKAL-NH2 [PGLa, reference compound]

>  <CC50>
> 50.8 µM

$$$$
>  <substance>
IKWKKLLRAAKRIL-NH2 [Peptide D74]

>  <CC50>
1.3 µM

$$$$
>  <substance>
GWFDVVKHIAKRF-NH2 [Peptide D70]

>  <CC50>
10.6 µM

$$$$
>  <substance>
GLNTLKKVFQGLHEAIKLINNHVQ [Psuedin 1, reference compound]

>  <CC50>
> 36.8 µM

$$$$
>  <substance>
RQRVEELSKFSKKGAAARRRK [Misgurin, reference compound]

>  <CC50>
> 40 µM

$$$$
>  <substance>
LLKELWTKIKGAGKAVLGKIKGLL [Ponericin L2, reference compound]

>  <CC50>
24.7 µM

$$$$
>  <substance>
RPKHPIKHQGLPQEVLNENLLRF [Isracidin, reference compound]

>  <CC50>
> 36.2 µM

$$$$
>  <substance>
VDKPDYRPRPRPPNM [Metalnikowin I, reference compound]

>  <CC50>
> 54.4 µM

$$$$
>  <substance>
NLVSGLIEARKYLEQLHRKLKNRKV [Peptide D88]

>  <CC50>
> 33.3 µM

$$$$
>  <substance>
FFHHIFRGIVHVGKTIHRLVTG [Piscidin 1, reference compound]

>  <CC50>
6.9 µM

$$$$
>  <substance>
INLKAIAALAKKLL [Mastoparan M, reference compound]

>  <CC50>
> 67.6 µM

$$$$
>  <substance>
GFLSILKKVLPKVMAHMK-NH2 [Melectin, reference compound]

>  <CC50>
7.75 µM

$$$$
>  <substance>
GFGKAFHSVSNFAKKHKTA-NH2 [Styelin A, reference compound]

>  <CC50>
> 48.5 µM

$$$$
>  <substance>
GNNRPVYIPQPRPPHPRI [Apidaecin IA, reference compound]

>  <CC50>
> 47.4 µM

$$$$
>  <substance>
GAWKNFWSSLRKGFYDGEAGRAIRR [Peptide D94, reference compound]

>  <CC50>
> 34.1 µM

$$$$
>  <substance>
GKPRPYSPRPTSHPRPIRV [Drosocin, reference compound]

>  <CC50>
> 45.5 µM

$$$$
>  <substance>
KGRGKQGGKVRAKAKTRSS [Parasin I, reference compound]

>  <CC50>
> 50 µM

$$$$
>  <substance>
SLSRFLRFLKIVYRRAF-NH2 [Peptide D98]

>  <CC50>
8.6 µM

$$$$
